Origin of the recorded values: ChEMBL document CHEMBL5143658

Assay: Cytotoxicity against mouse RAW264.7 cells assessed as inhibition of cell growth incubated for 48 hrs by MTT assay
Type: toxicity, cell-based
readout name: IC50 at 48 h

# example entries with known answers
{"structure smiles string": "CN(c1ccc(NC(=O)c2ccc(C(=N)N)cc2)cc1OCc1ccc(C(F)(F)F)cc1)S(=O)(=O)C(F)(F)F", "IC50 at 48 h": "> 500 µM"}
{"structure smiles string": "CCS(=O)(=O)N(C)c1ccc(NC(=O)c2cccc(C(=N)N)c2)cc1OCc1ccc(C(=N)N)cc1", "IC50 at 48 h": "> 500 µM"}
{"structure smiles string": "CN(c1ccc(NC(=O)c2ccc(C(=N)N)cc2)cc1OCc1ccc(C(F)(F)F)cc1)S(=O)(=O)Cc1ccccc1", "IC50 at 48 h": "> 500 µM"}
{"structure smiles string": "COc1ccc(C(=O)Nc2ccc(NC(=N)N)c(OCc3cc(C)ccc3C)c2)cc1", "IC50 at 48 h": "> 500 µM"}
{"structure smiles string": "N=C(N)Nc1ccc(NC(=O)c2ccc(Cl)c(Cl)c2)cc1OCc1ccccc1C(F)(F)F", "IC50 at 48 h": "196 µM"}

### Prompt # get_value(readout='IC50 at 48 h', item= CN(c1ccc(NC(=O)c2cccc(C(=N)N)c2)cc1OCc1ccc(C(F)(F)F)cc1)S(=O)(=O)Cc1ccccc1 )
### Response > 500 µM

### Prompt # get_value(readout='IC50 at 48 h', item= N=C(N)Nc1ccc(NC(=O)c2ccc3c(c2)OCO3)cc1OCc1cccc(C(F)(F)F)c1 )
### Response 101 µM

### Prompt # get_value(readout='IC50 at 48 h', item= Cc1ccc(C)c(COc2cc(NC(=O)c3ccc(Cl)c(Cl)c3)ccc2NC(=N)N)c1 )
### Response > 500 µM
